tested on: CP237; test: qHTS profiling for inhibitors of Plasmodium falciparum proliferation (AID 504749); further: nearly all actives have a fitted effect of over 60% in size; settings: P. falciparum in erythrocytes, SYBR Green DNA, 72 h; series mostly up to 28.7 µM
Results filed as inconclusive are left out. Active and inactive are the calls of the source. The call rests on the fitted dose curve; in most records, active means well fitted inhibition curve with a large enough effect; inconclusive means small, poorly fitted or top-dose-only effect; inactive means flat fitted curve, though single readings scatter.
Answer with one of the outcomes active, inactive

Answered examples (10):
CCCC1CCCCN1 (centres undefined) : inactive
O=c1[nH]c2ccccc2n1C1CCN(CCCC(c2ccc(F)cc2)c2ccc(F)cc2)CC1 : active
Cc1cccc(C)c1NC1=NCCCS1 : active
Oc1cccc2cccnc12 : inactive
CCC1(C2=NCCN2)Cc2ccccc2O1 (centres undefined) : active
CC(C)(N)Cc1ccc(Cl)cc1 : active
Nc1ccncc1 : inactive
Oc1cc(Cl)ccc1Oc1ccc(Cl)cc1Cl : active
CC(C)NCC(O)c1ccccc1Cl (centres undefined) : active
CN1CCN(C(=O)O[C@H]2c3nccnc3C(=O)N2c2ccc(Cl)cn2)CC1 : inactive

Query: Test call for this compound, please: "OCCOc1ccccc1"
Response: inactive

Query: Hey, what did the test say about "Cc1ccc(-c2nc3ccc(C)cn3c2CC(=O)N(C)C)cc1" ?
Response: inactive

Query: Test call for this compound, please: "Cn1c(CCCC(=O)O)nc2cc(N(CCCl)CCCl)ccc21"
Response: inactive

Query: Outcome? CC(C)CC(N(C)C)C1(c2ccc(Cl)cc2)CCC1 (centres undefined)
Response: inactive

Query: Test call for this compound, please: O=C(NC(O)C(Cl)(Cl)Cl)NC(O)C(Cl)(Cl)Cl (centres undefined)
Response: inactive

* * *

test: Quantitative High-Throughput drug screen in 47 multiple myeloma cell lines against the NCATS MIPE library collection: OPM1_PLB cell viability assay (AID 1918989); conditions: CellTiter-Glo, 48 h; series mostly up to 45.8 µM; further: nearly all actives have a fitted effect of over 40% in size
Results filed as inconclusive are left out. Activity calls are given as the source filed them. The call rests on the fitted dose curve; in most records, active means well fitted cell-killing curve with a large enough effect; inconclusive means small, poorly fitted or top-dose-only effect, or effect the other way; inactive means no such curve, though single readings can be large or run the other way.
Your answer must be one of the following: y for active, n for inactive

Record excerpt, results attached:
C#CCN(C)[C@H](C)Cc1ccccc1 : n
CNCC(O)c1ccc(O)cc1 (stereo unspecified) : n
C=C(C)[C@H]1Cc2c(ccc3c2O[C@@H]2COc4cc(OC)c(OC)cc4[C@@H]2C3=O)O1 : y
CN(C)CCc1ccc(O)cc1 : n
CN(C)CCN(C)CCc1ccc(Cl)c(Cl)c1 : n

Query: Recorded test call requested for "O=c1[nH]c2ccccc2n1CCCN1CCC(n2c(=O)[nH]c3cc(Cl)ccc32)CC1"
Response: n

* * *

test: Quantitative High-Throughput drug screen in 47 multiple myeloma cell lines against the NCATS MIPE library collection: OPM1_PLB cell viability assay (AID 1918989); details: CellTiter-Glo, 48 h; series mostly up to 45.8 µM; further: nearly all actives have a fitted effect of over 40% in size
Results filed as inconclusive are left out. Active and inactive are the calls of the source. The call rests on the fitted dose curve; in most records, active means well fitted cell-killing curve with a large enough effect; inconclusive means small, poorly fitted or top-dose-only effect, or effect the other way; inactive means no such curve, though single readings can be large or run the other way.
Just give me one of these, please: true (1) (active), false (0) (inactive)

Worked set:
CC1=C2C[C@@H]3[C@@H](CC=C4C[C@@H](O)CC[C@@]43C)[C@@H]2CC[C@]12O[C@H]1C[C@H](C)CN[C@H]1[C@H]2C : true (1)
COc1ccc2c(c1OC)CN1CCc3cc4c(cc3C1C2)OCO4 (stereo not drawn) : false (0)

Query: Called result for "COc1ccc(C(=O)c2c(C)n(CCN3CCOCC3)c3ccccc23)cc1"
Response: false (0)

Query: What classification did "Cc1sc2c(c1C)C(c1ccc(Cl)cc1)=N[C@@H](CC(=O)OC(C)(C)C)c1nnc(C)n1-2" end up with in this test?
Response: true (1)

Query: Please share the test call associated with "N[C@@H](Cc1ccc(N(CCCl)CCCl)cc1)C(=O)O" .
Response: true (1)

Query: Outcome? "CN1CCN(C(=O)O[C@H]2c3nccnc3C(=O)N2c2ccc(Cl)cn2)CC1"
Response: false (0)

Query: Dear colleague, could you share the recorded outcome for "C[C@@H]1[C@@H](C(=O)C[C@H]2O[C@@H]3O[C@]4(C)CC[C@@H]5[C@H](C)CC[C@@H]([C@H]2C)[C@@]35OO4)O[C@@H]2O[C@]3(C)CC[C@H]4[C@H](C)CC[C@@H]1[C@@]24OO3" when you have a moment?
Response: true (1)

Query: Per the assay record, what outcome was assigned to COc1ccc(C(CN(C)C)C2(O)CCCCC2)cc1 (stereo not drawn) ?
Response: false (0)
